Data provenance is BigSolDB 2.1.

RUN_PARAMETERS: in acetic acid, 349.88 K
PARAMETER_MEASURED: solubility (mole fraction)
Form rule: numeric answer, no unit written next to it.

Please indicate solubility (mole fraction) recorded for O=C(O)CCCC(=O)O
0.651

====

RUN_PARAMETERS: in cyclohexanone, 347.65 K
PARAMETER_MEASURED: solubility (mole fraction)
Form rule: numeric answer, no unit written next to it.

Please indicate solubility (mole fraction) recorded for O=C(O)CCCC(=O)O
0.627

====

RUN_PARAMETERS: in acetic acid, 327.38 K
PARAMETER_MEASURED: solubility (mole fraction)
Form rule: numeric answer, no unit written next to it.

Please indicate solubility (mole fraction) recorded for O=C(O)CCCC(=O)O
0.399

====

RUN_PARAMETERS: in cyclohexanol, 313.19 K
PARAMETER_MEASURED: solubility (mole fraction)
Form rule: numeric answer, no unit written next to it.

Please indicate solubility (mole fraction) recorded for O=C(O)CCCC(=O)O
0.271

====

RUN_PARAMETERS: in cyclohexanol, 334.9 K
PARAMETER_MEASURED: solubility (mole fraction)

Please indicate solubility (mole fraction) recorded for O=C(O)CCCC(=O)O
0.455

====

RUN_PARAMETERS: in cyclohexanol, 318.55 K
PARAMETER_MEASURED: solubility (mole fraction)
Form rule: numeric answer, no unit written next to it.

Please indicate solubility (mole fraction) recorded for O=C(O)CCCC(=O)O
0.312

====

RUN_PARAMETERS: in acetic acid, 319.05 K
PARAMETER_MEASURED: solubility (mole fraction)
Form rule: numeric answer, no unit written next to it.

Please indicate solubility (mole fraction) recorded for O=C(O)CCCC(=O)O
0.323

====

RUN_PARAMETERS: in acetic acid, 325.45 K
PARAMETER_MEASURED: solubility (mole fraction)
Form rule: numeric answer, no unit written next to it.

Please indicate solubility (mole fraction) recorded for O=C(O)CCCC(=O)O
0.373

====

RUN_PARAMETERS: in acetic acid, 353.36 K
PARAMETER_MEASURED: solubility (mole fraction)

Please indicate solubility (mole fraction) recorded for O=C(O)CCCC(=O)O
0.712

====

RUN_PARAMETERS: in cyclohexanol, 305.85 K
PARAMETER_MEASURED: solubility (mole fraction)
Form rule: numeric answer, no unit written next to it.

Please indicate solubility (mole fraction) recorded for O=C(O)CCCC(=O)O
0.234

====

RUN_PARAMETERS: in acetic acid, 310.19 K
PARAMETER_MEASURED: solubility (mole fraction)
Form rule: numeric answer, no unit written next to it.

Please indicate solubility (mole fraction) recorded for O=C(O)CCCC(=O)O
0.257

====

RUN_PARAMETERS: in cyclohexanone, 330.5 K
PARAMETER_MEASURED: solubility (mole fraction)
Form rule: numeric answer, no unit written next to it.

Please indicate solubility (mole fraction) recorded for O=C(O)CCCC(=O)O
0.428

====

RUN_PARAMETERS: in cyclohexanone, 326.95 K
PARAMETER_MEASURED: solubility (mole fraction)
Form rule: numeric answer, no unit written next to it.

Please indicate solubility (mole fraction) recorded for O=C(O)CCCC(=O)O
0.392

====

RUN_PARAMETERS: in cyclohexanol, 351.93 K
PARAMETER_MEASURED: solubility (mole fraction)
Form rule: numeric answer, no unit written next to it.

Please indicate solubility (mole fraction) recorded for O=C(O)CCCC(=O)O
0.693

====

RUN_PARAMETERS: in acetic acid, 304.47 K
PARAMETER_MEASURED: solubility (mole fraction)
Form rule: numeric answer, no unit written next to it.

Please indicate solubility (mole fraction) recorded for O=C(O)CCCC(=O)O
0.221

====

RUN_PARAMETERS: in cyclohexanone, 320.3 K
PARAMETER_MEASURED: solubility (mole fraction)

Please indicate solubility (mole fraction) recorded for O=C(O)CCCC(=O)O
0.334

====

RUN_PARAMETERS: in cyclohexanol, 339.75 K
PARAMETER_MEASURED: solubility (mole fraction)
Form rule: numeric answer, no unit written next to it.

Please indicate solubility (mole fraction) recorded for O=C(O)CCCC(=O)O
0.511

====

RUN_PARAMETERS: in cyclohexanol, 299.75 K
PARAMETER_MEASURED: solubility (mole fraction)
Form rule: numeric answer, no unit written next to it.

Please indicate solubility (mole fraction) recorded for O=C(O)CCCC(=O)O
0.205

====

RUN_PARAMETERS: in acetic acid, 344.21 K
PARAMETER_MEASURED: solubility (mole fraction)
Form rule: numeric answer, no unit written next to it.

Please indicate solubility (mole fraction) recorded for O=C(O)CCCC(=O)O
0.585

====

RUN_PARAMETERS: in cyclohexanone, 308.05 K
PARAMETER_MEASURED: solubility (mole fraction)
Form rule: numeric answer, no unit written next to it.

Please indicate solubility (mole fraction) recorded for O=C(O)CCCC(=O)O
0.241

====

RUN_PARAMETERS: in cyclohexanone, 311.94 K
PARAMETER_MEASURED: solubility (mole fraction)
Form rule: numeric answer, no unit written next to it.

Please indicate solubility (mole fraction) recorded for O=C(O)CCCC(=O)O
0.264

====

RUN_PARAMETERS: in cyclohexanol, 325.15 K
PARAMETER_MEASURED: solubility (mole fraction)
Form rule: numeric answer, no unit written next to it.

Please indicate solubility (mole fraction) recorded for O=C(O)CCCC(=O)O
0.366

====

RUN_PARAMETERS: in acetic acid, 335.25 K
PARAMETER_MEASURED: solubility (mole fraction)
Form rule: numeric answer, no unit written next to it.

Please indicate solubility (mole fraction) recorded for O=C(O)CCCC(=O)O
0.478

====

RUN_PARAMETERS: in cyclohexanone, 314.15 K
PARAMETER_MEASURED: solubility (mole fraction)
Form rule: numeric answer, no unit written next to it.

Please indicate solubility (mole fraction) recorded for O=C(O)CCCC(=O)O
0.283

====

RUN_PARAMETERS: in cyclohexanol, 344.8 K
PARAMETER_MEASURED: solubility (mole fraction)
Form rule: numeric answer, no unit written next to it.

Please indicate solubility (mole fraction) recorded for O=C(O)CCCC(=O)O
0.571

====

RUN_PARAMETERS: in cyclohexanol, 336.3 K
PARAMETER_MEASURED: solubility (mole fraction)

Please indicate solubility (mole fraction) recorded for O=C(O)CCCC(=O)O
0.477

====

RUN_PARAMETERS: in cyclohexanol, 320.55 K
PARAMETER_MEASURED: solubility (mole fraction)
Form rule: numeric answer, no unit written next to it.

Please indicate solubility (mole fraction) recorded for O=C(O)CCCC(=O)O
0.33

====

RUN_PARAMETERS: in acetic acid, 307.28 K
PARAMETER_MEASURED: solubility (mole fraction)
Form rule: numeric answer, no unit written next to it.

Please indicate solubility (mole fraction) recorded for O=C(O)CCCC(=O)O
0.241

====

RUN_PARAMETERS: in cyclohexanone, 325.05 K
PARAMETER_MEASURED: solubility (mole fraction)

Please indicate solubility (mole fraction) recorded for O=C(O)CCCC(=O)O
0.366

====

RUN_PARAMETERS: in cyclohexanol, 302.7 K
PARAMETER_MEASURED: solubility (mole fraction)
Form rule: numeric answer, no unit written next to it.

Please indicate solubility (mole fraction) recorded for O=C(O)CCCC(=O)O
0.219

====

RUN_PARAMETERS: in acetic acid, 321.38 K
PARAMETER_MEASURED: solubility (mole fraction)
Form rule: numeric answer, no unit written next to it.

Please indicate solubility (mole fraction) recorded for O=C(O)CCCC(=O)O
0.345

====

RUN_PARAMETERS: in cyclohexanone, 304.5 K
PARAMETER_MEASURED: solubility (mole fraction)
Form rule: numeric answer, no unit written next to it.

Please indicate solubility (mole fraction) recorded for O=C(O)CCCC(=O)O
0.213

====

RUN_PARAMETERS: in acetic acid, 332.97 K
PARAMETER_MEASURED: solubility (mole fraction)
Form rule: numeric answer, no unit written next to it.

Please indicate solubility (mole fraction) recorded for O=C(O)CCCC(=O)O
0.436

====

RUN_PARAMETERS: in cyclohexanol, 316 K
PARAMETER_MEASURED: solubility (mole fraction)

Please indicate solubility (mole fraction) recorded for O=C(O)CCCC(=O)O
0.288

====

RUN_PARAMETERS: in cyclohexanone, 346.8 K
PARAMETER_MEASURED: solubility (mole fraction)
Form rule: numeric answer, no unit written next to it.

Please indicate solubility (mole fraction) recorded for O=C(O)CCCC(=O)O
0.598

====

RUN_PARAMETERS: in acetic acid, 301.3 K
PARAMETER_MEASURED: solubility (mole fraction)
Form rule: numeric answer, no unit written next to it.

Please indicate solubility (mole fraction) recorded for O=C(O)CCCC(=O)O
0.203
